# pIC50 against UniProtKB O70342, merged from multiple literature sources
Convention used: pIC50 is expressed as -log10 of the molar concentration.

pIC50 recorded for this compound, CC(C)n1c(=O)oc2cc(NC(=O)[C@H]3CC[C@@H](Oc4cc(C(F)(F)F)ccc4C#N)CC3)ccc21 , is 9.17

// pIC50 value for CC(C)(C)S(=O)(=O)N[C@H]1CC[C@H](c2cc3nc(-c4ccccn4)ccc3[nH]2)CC1 : 9.54

# pIC50 of O=C(Nc1ccn(-c2ccccc2F)n1)[C@H]1CC[C@@H](Oc2cc(Cl)ccn2)CC1 = 9.16

Recorded result, CC(C)n1c(=O)oc2cc(NC(=O)[C@H]3CC[C@@H](NC(=O)c4ccccc4)CC3)ccc21 , pIC50: 8.35

Form field pIC50, entry CC(C)c1noc(=O)n1CC(=O)N1CCC(C(=O)Nc2cccc(-c3ccccc3F)c2)CC1 : 9.66

For reference, reported pIC50 for N#Cc1ccccc1C(=O)N1CCC(C(=O)Nc2cccc(-c3ccccc3F)c2)CC1 stands at 9.59

Per the records, this compound ( CC(C)(c1ccccc1)c1noc(N[C@H]2CC[C@H](CNS(=O)(=O)C(C)(C)C)CC2)n1 ) has pIC50 equal to 9.15

According to the records, this compound N#Cc1ccccc1C(=O)N1CCC(c2cc(-c3ccc(Cl)c(Cl)c3)n[nH]2)CC1 displays pIC50 of 9.52
